# System: YSK1;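 also: KINOMEscan kinase panel screen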
# Construct: gene STK25
# condition-parameters: concentration: 1 μM, replicates: in singlicate; n = 1
Here the recorded %Inh is given for each entry.
parameter-measured: %Inh (%)

> print(dat)
                                  structure  reading.unit  data.value
1  COc1cccc(-c2ccc3c(NC(=O)C4CC4)n[nH]c3n2)c1             %           0
2  O=C(O)C(F)(F)F.O=C(O)C(F)(F)F.O=c1[nH]ccc2nc(N[C@@H]3CCCNC3)nc(Nc3ccc(S(=O)(=O)N4CCOCC4)cc3)c12             %        94.2
3  CC(C)c1nc(-c2cccc(NS(=O)(=O)c3c(F)cccc3F)c2F)c(-c2ccnc(Nc3ccc(N4CCOCC4)nc3)n2)s1             %          56
4  O=C(Nc1n[nH]c2nc(-c3ccc(O)cc3)ccc12)C1CC1             %           0
5  CC(=O)Nc1nc2cnc(Nc3cc(NC(=O)c4cccc(C5(C#N)CC5)c4Cl)ccc3C)nc2s1             %           0
6      c1ccc(-c2n[nH]cc2Nc2ccnc3ccccc23)nc1             %          12
